Assay: Intact half-life during simulated gastric fluid (SGF) digestion
Conditions: SGF pH 1.5, pepsin:polypeptide 1:20 w/w, 37° C.; produced in E. coli unless otherwise noted
PARAMETER: SGF Half-life (t½) (min)
Give bare numbers, in min.

IN: Find the recorded SGF Half-life (t½) belonging to SEQID-00284: nutritive polypeptide (protein, listed as Arabidopsis thaliana) KLEHGVHVVSGTPGRVCDMIKRRSLRTRAIKLLILDESDEMLSRGFKDQIYDVYRYLPPDLQVCLVSATLPHEILEMTSKFMTEPVKILVKRDELTLEGIKQFFVAVEKEEWK and report it.
OUT: 1
